Test system: SF-268
method_summary: NCI tumour cell line growth inhibition, 48 h
Activity calls are given as the source filed them. Cut-off read from the data, not from the text of the source: active = GI50 up to about 1.1 µM and inactive = higher.
Lab note: assign the record to one of active, inactive

## Input GET /call?item= NCC1Nc2ccccc2[C@@H](O)C1O (stereo not given in full) returns the recorded outcome of this test.
## Output inactive

## Input For O=C(NCCCN1CCN(CCCNC(=O)c2cc(-c3ccccc3)nc3ccccc23)CC1)c1cc(-c2ccccc2)nc2ccccc12 , which call appears in the assay record?
## Output inactive

## Input # fetch the recorded call for C=C1CC/C=C(\C)C(=O)C[C@@H]2[C@@H]1CC2(C)C here
## Output inactive

## Input # outcome recorded in this test, key = COc1cc(C(C)c2cc3c(cc2OCCOCCOc2cc4c(cc2C(C)c2cc(OC)c(OC)c(OC)c2)OCO4)OCO3)cc(OC)c1OC (stereo not given)
## Output inactive

## Input Field: outcome | Entry: Nc1nc(Cl)cc(NCCCCCCCCNc2cc(Cl)nc(N)n2)n1
## Output inactive

## Input What did the test return for COc1cc2nc(Cl)nc(NS(=O)(=O)c3cc4ccccc4s3)c2cc1OC ?
## Output inactive

## Input Can you look up the reported call for O=C1C=C(OCCCl)C(=O)c2c(O)ccc(O)c21 for me?
## Output active

## Input For this compound, state the assay outcome: CCOC(=O)N1CCN(c2nc(C)n(-c3ccccc3)c(=S)c2C#N)CC1
## Output inactive

## Input What was the test verdict on C=C1C(=O)OC2C1CC(O)/C(C)=C\CCC1(C)OC21 (stereo not given) ?
## Output inactive

## Input For COc1ccc(Cc2c3cc(O)c([O-])cc3cc[n+]2C)cc1 , which call appears in the assay record?
## Output inactive
